These measurements were taken from PubChem BioAssay (NCI).

Test: NCI Yeast Anticancer Drug Screen. Data for the cln2 rad14 strain (AID 165)
Details: S. cerevisiae cln2 rad14 strain, at 5.0 µM (retest, dose inferred, filed as 0.5), active compounds read high
Compounds without any hit were thinned out: in the full panel of roughly 79,000, 15% have a hit.
Everything with growth inhibition lower than 30% is rule not met; everything else, including exactly 30%, is rule met.

INSERT INTO assay_data (compound, assigned_class) VALUES
  ('CCCCCCN(CCCCCC)CCCCCC', 'rule not met'),
  ('CC1(c2ccc(O)cc2)CC(C)(c2ccc(O)cc2)C1 (stereo unspecified)', 'rule met'),
  ('CC(=O)Oc1c(C)cc(C)cc1Cc1cc(C(C)=O)cc(Cc2cc(C)cc(C)c2OC(C)=O)c1OC(C)=O', 'rule not met'),
  ('N=C(N)Cc1ccc(NC(=O)c2ccc(C(=O)Nc3ccc(CC(=N)N)cc3)cc2)cc1', 'rule not met'),
  ('c1ccc(-c2c3ccccc3cc3ccc4ccccc4c23)nc1', 'rule not met');

Could you now look at the following compound, please?
Ask: Hi, just wondering whether `CCCCN(CCCC)CCCCCCNc1cc(OC)cc2cccnc12` shows growth inhibition of 30% or higher.
Reply: rule not met
